Assay: in vitro
Details: rat, liver microsomes
QUANTITY: remaining at 0.5 h (%)
Just the number please, in %, no unit attached.

Recorded results for 3 compounds are shown here.
[
  {
    "ENTRY SMILES": "NC(=O)c1sc2nccc(N3CCCCC3)c2c1N",
    "VALUE UNITS": "%",
    "remaining at 0.5 h": 2
  },
  {
    "ENTRY SMILES": "NC(=O)c1sc2nccc(N3CCN(c4ccccc4)CC3)c2c1N",
    "VALUE UNITS": "%",
    "remaining at 0.5 h": 91
  },
  {
    "ENTRY SMILES": "NC(=O)c1sc2nccc(N3CCOCC3)c2c1N",
    "VALUE UNITS": "%",
    "remaining at 0.5 h": 82
  }
]

Continue with the compound presented below.
Recorded remaining at 0.5 h (compound `NC(=O)c1sc2nccc(N3CCCN(c4ccccc4)CC3)c2c1N` ): 71

Every entry's value here was drawn from ChEMBL document CHEMBL2346568.
